OD450 nm values by entry
study system: T1, human GPC3-His protein (human, UniProt P51654 25-559)
T1 construct: Bought protein; also called human GPC3 protein; not shown: His tag
assay remarks: ELISA, coated human GPC3, antibody 0.01 nM;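 note: Plate-bound antigen coated at 1 µg/mL, antibody incubated 2 h at 37 °C, binding detected by HRP-conjugated secondary antibody with TMB substrate, read as absorbance at 450 nm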
The reply should contain only the number, in OD450.

Example entries begin here.
| binder | OD450 nm (OD450) |
| --- | --- |
| F3.38.7 human-murine chimeric antibody (antibody, human IgG1, kappa, V domains shown) VH: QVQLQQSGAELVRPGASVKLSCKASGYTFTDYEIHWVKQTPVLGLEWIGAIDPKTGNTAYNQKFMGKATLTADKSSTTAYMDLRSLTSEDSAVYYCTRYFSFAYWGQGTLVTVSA VL: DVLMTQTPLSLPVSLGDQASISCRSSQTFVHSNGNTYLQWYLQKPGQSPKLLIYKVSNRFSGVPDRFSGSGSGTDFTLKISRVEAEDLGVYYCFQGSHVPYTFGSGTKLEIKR | 0.38 |
| F1.62.9 human-murine chimeric antibody (antibody, human IgG1, kappa, V domains shown) VH: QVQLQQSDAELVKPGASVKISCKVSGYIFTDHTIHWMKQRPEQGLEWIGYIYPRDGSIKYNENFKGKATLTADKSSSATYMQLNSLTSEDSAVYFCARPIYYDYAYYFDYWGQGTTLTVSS VL: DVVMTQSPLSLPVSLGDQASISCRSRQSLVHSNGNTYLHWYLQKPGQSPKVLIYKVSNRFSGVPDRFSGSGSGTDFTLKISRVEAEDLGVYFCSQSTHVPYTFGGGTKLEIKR | 0.1 |

Look up OD450 nm for this binder: F4.26.1 human-murine chimeric antibody (antibody, human IgG1, kappa, V domains shown) VH: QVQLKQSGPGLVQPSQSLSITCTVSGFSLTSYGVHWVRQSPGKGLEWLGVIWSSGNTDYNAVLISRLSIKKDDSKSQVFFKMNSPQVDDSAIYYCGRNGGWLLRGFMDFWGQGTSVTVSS VL: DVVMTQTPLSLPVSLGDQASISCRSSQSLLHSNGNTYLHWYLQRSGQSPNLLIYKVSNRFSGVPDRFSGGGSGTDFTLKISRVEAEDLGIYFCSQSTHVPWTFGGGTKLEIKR
0.18
